Experiment: Oral bioavailability in Sprague-Dawley rat at 10 mg/kg
Type: ADME, organism-based
Conditions: in vivo
Recorded measurements of bioavailability, one per entry
Numbers only; they are read as %.

Previously resolved entries follow.
COc1ccc(C2=Nc3c(C(C)(C)C)nn(CCCO)c3C(=O)NC2)cc1-c1cnn(C)c1
31
CCC(CC)c1nn(CCO)c2c1N=C(c1ccc(-n3ccnc3C)cc1)CNC2=O
75

// next entry
Req: Look up bioavailability: COc1ncc(-c2cc(C3=Nc4c(C(C)(C)C)nn(CCO)c4C(=O)NC3)ccc2OC)cn1
Resp: 78

----------
List of IC50 tested on 3',5'-cyclic-AMP phosphodiesterase 4B (Homo sapiens, UniProt Q07343).
Sequence (Q07343 whole entry): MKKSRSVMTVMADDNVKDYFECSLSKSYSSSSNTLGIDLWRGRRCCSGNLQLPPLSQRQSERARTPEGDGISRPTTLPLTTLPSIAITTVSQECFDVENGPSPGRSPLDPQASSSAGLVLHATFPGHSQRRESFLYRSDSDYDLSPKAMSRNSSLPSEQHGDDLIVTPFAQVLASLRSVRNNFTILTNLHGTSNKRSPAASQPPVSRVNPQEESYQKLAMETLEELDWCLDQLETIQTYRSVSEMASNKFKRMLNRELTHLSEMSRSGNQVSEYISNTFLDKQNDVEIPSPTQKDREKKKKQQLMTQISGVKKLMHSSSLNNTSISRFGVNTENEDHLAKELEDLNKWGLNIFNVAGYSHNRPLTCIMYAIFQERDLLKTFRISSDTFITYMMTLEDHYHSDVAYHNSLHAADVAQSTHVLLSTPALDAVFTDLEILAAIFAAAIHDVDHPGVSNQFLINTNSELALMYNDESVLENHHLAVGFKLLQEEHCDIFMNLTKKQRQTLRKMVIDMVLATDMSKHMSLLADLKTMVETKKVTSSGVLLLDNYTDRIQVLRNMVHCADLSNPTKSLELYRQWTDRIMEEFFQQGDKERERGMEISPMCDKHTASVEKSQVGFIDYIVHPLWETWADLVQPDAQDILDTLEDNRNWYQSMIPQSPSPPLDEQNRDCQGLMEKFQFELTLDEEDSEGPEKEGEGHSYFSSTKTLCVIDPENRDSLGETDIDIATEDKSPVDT
Numbers only; they are read as µM.

COc1ccc(C2=Nc3c(C(C)(C)C)nn(CCCO)c3C(=O)NC2)cc1-c1ccc(F)cc1F
100

Req: Look up IC50: COc1ccc(-c2cc(C3=Nc4c(C(C)(C)C)nn(CCO)c4C(=O)NC3)ccc2OC)c(OC)n1
Resp: 0.418

Req: Look up IC50: COc1ccc(C2=Nc3c(C(C)(C)C)nn(CCO)c3C(=O)NC2)cc1-c1cnc(N2CCOCC2)nc1
Resp: 0.265

Req: Look up IC50: COc1ccc(C2=Nc3c(C(C)(C)C)nn(CCCO)c3C(=O)NC2)cc1-c1ccc(C(=O)O)cc1
Resp: 27

Numbers sourced from ChEMBL document CHEMBL2385057.
